# Tested on: 855422-203-R-J1-PDC complex spheroid viability
# ASSAY_TEXT: Anticancer human tumor 855422-203-R-J1-PDC patient-derived bladder carcinoma cell line growth inhibition
# CONDITIONS_USED: second compound 1 µM; first compound 0.00316 µM; hits give low values
READOUT_LABEL: viability, T/C (%)
Just the number in %, nothing appended.

Study these solved cases before continuing.
The compound CC(C)CC(NC(=O)C(Cc1ccccc1)NC(=O)c1cnccn1)B(O)O (stereo unspecified) + NC1CC1c1ccc(-c2cccc(O)c2)cc1 on 855422-203-R-J1-PDC complex spheroid viability: viability, T/C was 0.02

The compound O=C(C=Cn1cnc(-c2cc(C(F)(F)F)cc(C(F)(F)F)c2)n1)NNc1cnccn1 + NC1CC1c1ccc(-c2cccc(O)c2)cc1 on 855422-203-R-J1-PDC complex spheroid viability: viability, T/C was 121

The compound CC[C@@]1(O)C(=O)OCc2c1cc1n(c2=O)Cc2cc3c(CN(C)C)c(O)ccc3nc2-1 + NC1CCC(NC2CC2c2ccccc2)CC1 on 855422-203-R-J1-PDC complex spheroid viability: viability, T/C was 78.5

New cases:
The compound CC1COCCN1c1cc(-c2ccnn2C)c2ccnc(-c3ccn[nH]3)c2n1 (stereo unspecified) + NC1CCC(NC2CC2c2ccccc2)CC1 on 855422-203-R-J1-PDC complex spheroid viability: viability, T/C was 85

The compound CC(C)CC(NC(=O)CNC(=O)c1cc(Cl)ccc1Cl)B1OC(=O)CC(CC(=O)O)(C(=O)O)O1 (stereo unspecified) + NC1CCC(NC2CC2c2ccccc2)CC1 on 855422-203-R-J1-PDC complex spheroid viability: viability, T/C was 3.87

###

# Test system: 855422-203-R-J1-PDC complex spheroid viability
# ASSAY_TEXT: Anticancer human tumor 855422-203-R-J1-PDC cell line growth inhibition;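 further: drug exposure lasted 7 days starting on day 3 after seeding; luminescence viability as percent of DMSO vehicle wells = 100%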
# CONDITIONS_USED: second compound 0.316 µM; first compound 0.1 µM; hits give low values
# viability, T/C values compiled below
Just the number in %, nothing appended.

Study these solved cases before continuing.
The molecule CC[C@@]1(O)C(=O)OCc2c1cc1n(c2=O)Cc2cc3c(CN(C)C)c(O)ccc3nc2-1 + NC1CCC(NC2CC2c2ccccc2)CC1 on 855422-203-R-J1-PDC complex spheroid viability: viability, T/C was 21.2

The molecule CC(C)CC(NC(=O)CNC(=O)c1cc(Cl)ccc1Cl)B1OC(=O)CC(CC(=O)O)(C(=O)O)O1 (centres undefined) + NC1CC1c1ccc(-c2cccc(O)c2)cc1 on 855422-203-R-J1-PDC complex spheroid viability: viability, T/C was 0.1

The molecule CC(C)CC(NC(=O)CNC(=O)c1cc(Cl)ccc1Cl)B1OC(=O)CC(CC(=O)O)(C(=O)O)O1 (centres undefined) + NC1CCC(NC2CC2c2ccccc2)CC1 on 855422-203-R-J1-PDC complex spheroid viability: viability, T/C was 0.09

Consider the additional molecule presented here.
The molecule CC1COCCN1c1cc(C2(S(C)(=N)=O)CC2)nc(-c2ccnc3[nH]ccc23)n1 (centres undefined) + NC1CC1c1ccc(-c2cccc(O)c2)cc1 on 855422-203-R-J1-PDC complex spheroid viability: viability, T/C was 91.2

###

# Test system: 855422-203-R-J1-PDC complex spheroid viability
# ASSAY_TEXT: Anticancer human tumor 855422-203-R-J1-PDC cell line growth inhibition; active means viability on the fitted dose curve at most 10% of control; inactive means the rest;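 further: drug exposure lasted 7 days starting on day 3 after seeding; luminescence viability as percent of DMSO vehicle wells = 100%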
# CONDITIONS_USED: second compound 0.316 µM; first compound 3 µM
Response enum: active, inactive

The examples below pair each entry with its known result.
(Q) Hey, what did the test say about CCN(c1cc(-c2ccc(CN3CCOCC3)cc2)cc(C(=O)NCc2c(C)cc(C)[nH]c2=O)c1C)C1CCOCC1 + NC1CC1c1ccc(-c2cccc(O)c2)cc1 ?
(A) inactive

(Q) Hey, what did the test say about Nc1ccccc1NC(=O)c1ccc(CNC(=O)OCc2cccnc2)cc1 + NC1CC1c1ccc(-c2cccc(O)c2)cc1 ?
(A) active

(Q) Hey, what did the test say about COc1cc(C2c3cc4c(cc3C(OC3OC5COC(C)OC5C(O)C3O)C3COC(=O)C23)OCO4)cc(OC)c1O (stereo not given) + NC1CC1c1ccc(-c2cccc(O)c2)cc1 ?
(A) inactive

(Q) Hey, what did the test say about CCN(c1cc(-c2ccc(CN3CCOCC3)cc2)cc(C(=O)NCc2c(C)cc(C)[nH]c2=O)c1C)C1CCOCC1 + NC1CCC(NC2CC2c2ccccc2)CC1 ?
(A) inactive

(Q) Hey, what did the test say about O=C(C=Cc1cccc(S(=O)(=O)Nc2ccccc2)c1)NO + NC1CCC(NC2CC2c2ccccc2)CC1 ?
(A) active

(Q) Hey, what did the test say about O=C(C=Cc1cccc(S(=O)(=O)Nc2ccccc2)c1)NO + NC1CC1c1ccc(-c2cccc(O)c2)cc1 ?
(A) active

New cases:
(Q) Hey, what did the test say about NS(=O)(=O)OCC1CC(n2ccc3c(NC4CCc5ccccc54)ncnc32)CC1O (stereo not given) + NC1CCC(NC2CC2c2ccccc2)CC1 ?
(A) inactive

(Q) Hey, what did the test say about NS(=O)(=O)OCC1CC(n2ccc3c(NC4CCc5ccccc54)ncnc32)CC1O (stereo not given) + NC1CC1c1ccc(-c2cccc(O)c2)cc1 ?
(A) inactive

(Q) Hey, what did the test say about COc1cc(C2c3cc4c(cc3C(OC3OC5COC(C)OC5C(O)C3O)C3COC(=O)C23)OCO4)cc(OC)c1O (stereo not given) + NC1CCC(NC2CC2c2ccccc2)CC1 ?
(A) inactive

(Q) Hey, what did the test say about Nc1ccccc1NC(=O)c1ccc(CNC(=O)OCc2cccnc2)cc1 + NC1CCC(NC2CC2c2ccccc2)CC1 ?
(A) active
